- Measurement target: T1, Human CXCR2 (human, UniProt P25025 1-360)
- T1 sequence: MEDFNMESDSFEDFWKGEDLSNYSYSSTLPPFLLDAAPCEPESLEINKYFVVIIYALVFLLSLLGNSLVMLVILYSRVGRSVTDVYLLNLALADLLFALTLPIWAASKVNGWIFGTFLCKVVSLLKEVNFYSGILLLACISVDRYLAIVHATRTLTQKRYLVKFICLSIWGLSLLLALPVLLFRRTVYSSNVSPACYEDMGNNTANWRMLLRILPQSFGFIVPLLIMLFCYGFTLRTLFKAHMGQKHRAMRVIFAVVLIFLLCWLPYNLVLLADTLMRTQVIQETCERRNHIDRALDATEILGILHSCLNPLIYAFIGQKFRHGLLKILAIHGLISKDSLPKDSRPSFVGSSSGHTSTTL
- Experiment summary: cell-based or functional assay
Value kind: [35S]GTPγS accumulation IC50, IL-8 (pM)

>  <Binder>
CXCR20035 (other, not shown: small tags and cut ends) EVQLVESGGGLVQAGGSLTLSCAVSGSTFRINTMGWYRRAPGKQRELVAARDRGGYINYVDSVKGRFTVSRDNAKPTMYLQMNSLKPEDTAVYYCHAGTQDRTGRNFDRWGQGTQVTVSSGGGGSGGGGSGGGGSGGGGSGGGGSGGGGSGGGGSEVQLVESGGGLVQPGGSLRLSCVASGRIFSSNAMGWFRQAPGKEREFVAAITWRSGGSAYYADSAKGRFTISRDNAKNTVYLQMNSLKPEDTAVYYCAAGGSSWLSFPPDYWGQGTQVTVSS

>  <Value kind>
[35S]GTPγS accumulation IC50, IL-8

>  <Readout number>
717

$$$$
>  <Binder>
CXCR20032 (bispecific antibody, not shown: small tags and cut ends) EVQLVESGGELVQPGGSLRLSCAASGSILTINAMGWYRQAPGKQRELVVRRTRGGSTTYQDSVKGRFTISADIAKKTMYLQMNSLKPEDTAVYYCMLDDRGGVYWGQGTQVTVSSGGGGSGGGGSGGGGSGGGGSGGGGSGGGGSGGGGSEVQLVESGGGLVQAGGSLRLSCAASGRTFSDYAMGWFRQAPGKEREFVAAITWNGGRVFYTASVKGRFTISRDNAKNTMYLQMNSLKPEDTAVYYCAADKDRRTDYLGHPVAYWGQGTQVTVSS

>  <Value kind>
[35S]GTPγS accumulation IC50, IL-8

>  <Readout number>
997

$$$$
